Measurement Target: T1, human TL1A (hTL1A) antigen (human, UniProt O95150 58-251, limits assumed)
T1 construct: also called TNFSF15
T1 sequence (looked up): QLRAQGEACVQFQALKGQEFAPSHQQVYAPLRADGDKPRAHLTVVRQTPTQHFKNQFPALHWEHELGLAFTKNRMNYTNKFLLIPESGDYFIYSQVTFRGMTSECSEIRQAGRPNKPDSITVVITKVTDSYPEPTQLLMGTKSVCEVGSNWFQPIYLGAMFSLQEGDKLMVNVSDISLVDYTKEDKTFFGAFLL
Assay Protocol: SPR, affinity ranking, clone as ligand
Property Label: koff (s⁻¹)
Write the answer as a number in s⁻¹, unit excluded.

Task: Query: koff; subject: AS12824 (antibody, V domains shown, Humanized 5C3D11 clone from a phage display library; also called 15) VH: QVQLVQSGAEVKKPGASVKVSCKASGFDICDTYMHWVKQRPGQGLEWIGRIDPASGHTKYDPKFQVRATITTDTSTSTAYLELSSLRSEDTAVYYCARSGGLPDVWGQGTTVTVSS VL: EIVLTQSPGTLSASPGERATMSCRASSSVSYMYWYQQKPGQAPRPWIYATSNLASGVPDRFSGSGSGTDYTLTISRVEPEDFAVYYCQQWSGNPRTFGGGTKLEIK
Result: 1.69e-05
